- System: H3K18Ac in HB-CLS-2 cells
- EXPERIMENT SUMMARY: H3K18AC in-cell western (ICW) assay
- Type: cell-based
- CONDITION LABEL: H3K18Ac in-cell western, HB-CLS-2 cells; read-out: CREBBP ICW IC50
pIC50: −log10 of the molar value.
Answer 0 (no) if pIC50 is under 6, and 1 (yes) if it is 6 or more.

CCn1ncc(CN(C)C(=O)c2nc(-c3ccc(NC4CCOCC4)c(C)c3)nc3ccc(Cl)cc23)c1C; 1 (yes)
CCn1ncc(CN(C)C(=O)c2nc(-c3cc(Cl)cc(C(=O)NC)c3)nc3ccc(Cl)cc23)c1C; 0 (no)
CCn1ncc(CN(C)C(=O)c2nc(-c3cnc(CO)n3C)nc3ccc(Cl)cc23)c1C; 0 (no)

Assess whether reported pIC50 for CCn1ncc(CN(C)C(=O)c2cc(-c3cc(NC(=O)CNC)cc(C)n3)nc3ccc(Cl)cc23)c1C sits at 6 or higher. 1 (yes)

Assess whether reported pIC50 for CCn1ncc(CN(C)C(=O)c2cc(-c3ccc(OCCCNC)cn3)nc3ccc(Cl)cc23)c1C sits at 6 or higher. 0 (no)
